Reference source for all entries: patent US9850273B2

molecular target: progesterone receptor (Homo sapiens, UniProt P06401); assay: PR transactivation assay, agonistic activity (PR luciferase reporter); format: cell-based; conditions: T47D cells
Sequence (P06401 679-933 limits assumed): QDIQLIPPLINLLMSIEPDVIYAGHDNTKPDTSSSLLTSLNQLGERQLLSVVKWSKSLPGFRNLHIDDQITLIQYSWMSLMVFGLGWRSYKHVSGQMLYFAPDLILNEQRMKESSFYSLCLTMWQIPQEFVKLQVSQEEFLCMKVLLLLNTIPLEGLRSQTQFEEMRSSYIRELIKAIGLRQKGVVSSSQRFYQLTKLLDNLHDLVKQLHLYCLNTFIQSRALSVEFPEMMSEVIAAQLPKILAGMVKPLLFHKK
ASSAY ENDPOINT: Agonist rel to R5020 (%)

Some entries whose results are on file:
MOLECULE	SYSTEM NAME	Agonist rel to R5020 (%)
C[C@]12C[C@H](c3ccc(-n4ccnc4)cc3)C3=C4CCC(=O)C=C4CCC3C1CC[C@@]2(O)C(F)(F)C(F)(F)F (stereo partly shown)	progesterone receptor (Homo sapiens, UniProt P06401)	0.35%
CC[C@@H]1CC2C3CCC4=CC(=O)CCC4=C3[C@@H](c3ccc(-c4ccoc4)cc3)C[C@]2(C)C1C(C)=O (stereo partly shown)	progesterone receptor (Homo sapiens, UniProt P06401)	6.4%
CC[C@@H]1CC2C3CCC4=CC(=O)CCC4=C3[C@@H](c3ccc(-n4ccnc4)cc3)C[C@]2(C)C1C(C)=O (stereo partly shown)	progesterone receptor (Homo sapiens, UniProt P06401)	0.32%

Would you kindly look at the next entry?
Asked: I'd like to know its Agonist rel to R5020 (%). The molecule in question is C[C@]12C[C@H](c3ccc(-c4cccnc4)cc3)C3=C4CCC(=O)C=C4CCC3C1CCC21OCCC1=C(F)F (stereo partly shown)
Given back: 0.73%

====

target: progesterone receptor (Homo sapiens); assay: PR transactivation assay, antagonistic activity (PR luciferase reporter); format: cell-based; details: Table 2 summary; read-out: PR antagonism (IC50)
Sequence (P06401 165-933 limits assumed): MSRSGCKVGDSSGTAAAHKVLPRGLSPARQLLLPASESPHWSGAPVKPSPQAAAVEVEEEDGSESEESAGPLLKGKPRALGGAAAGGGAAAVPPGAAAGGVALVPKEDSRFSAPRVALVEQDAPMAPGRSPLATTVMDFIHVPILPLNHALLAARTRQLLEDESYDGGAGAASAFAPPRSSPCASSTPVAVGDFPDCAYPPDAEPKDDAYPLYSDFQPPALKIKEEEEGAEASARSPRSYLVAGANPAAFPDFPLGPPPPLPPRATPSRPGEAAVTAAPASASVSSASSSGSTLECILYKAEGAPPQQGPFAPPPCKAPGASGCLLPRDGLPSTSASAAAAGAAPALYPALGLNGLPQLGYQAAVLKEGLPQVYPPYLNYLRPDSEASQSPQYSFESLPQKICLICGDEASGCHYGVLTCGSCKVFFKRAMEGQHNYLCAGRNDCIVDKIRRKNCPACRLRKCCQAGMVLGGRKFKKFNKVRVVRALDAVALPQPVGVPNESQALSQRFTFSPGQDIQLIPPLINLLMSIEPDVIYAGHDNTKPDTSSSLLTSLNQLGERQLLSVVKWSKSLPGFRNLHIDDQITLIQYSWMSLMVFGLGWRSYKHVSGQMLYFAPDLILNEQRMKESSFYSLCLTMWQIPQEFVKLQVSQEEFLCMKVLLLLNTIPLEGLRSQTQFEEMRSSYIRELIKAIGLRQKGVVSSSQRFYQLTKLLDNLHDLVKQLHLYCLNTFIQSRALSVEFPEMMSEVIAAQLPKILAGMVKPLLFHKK
Measured IC50, listed per entry.
Output should be the measured figure followed by the unit it is expressed in.

Some entries whose results are on file:
COMPOUND	SYSTEM NAME	MEASURED
C[C@]12C[C@H](c3ccc(-n4ccnc4)cc3)C3=C4CCC(=O)C=C4CCC3C1CC[C@@]2(O)C(F)(F)C(F)(F)F (stereo partly drawn) [EC-317]	progesterone receptor (Homo sapiens)	0.46 nM
C=C1CCOC12CCC1C3CCC4=CC(=O)CCC4=C3[C@@H](c3ccc(-n4ccnc4)cc3)C[C@@]12C (stereo partly drawn) [EC336]	progesterone receptor (Homo sapiens)	5 nM
CC(=O)O[C@]1(C(C)=O)CC[C@H]2[C@@H]3CCC4=CC(=O)CCC4=C3[C@@H](c3ccc(N(C)C)cc3)C[C@@]21C [CDB-2914, reference compound]	progesterone receptor (Homo sapiens)	0.65 nM
C=C[C@@H]1CC2C3CCC4=CC(=O)CCC4=C3[C@@H](c3ccc(-n4ccnc4)cc3)C[C@]2(C)C1C(C)=O (stereo partly drawn) [EC347]	progesterone receptor (Homo sapiens)	0.95 nM
CC[C@@H]1CC2C3CCC4=CC(=O)CCC4=C3[C@@H](c3ccc(-c4cccnc4)cc3)C[C@]2(C)C1C(C)=O (stereo partly drawn) [EC-342]	progesterone receptor (Homo sapiens)	0.95 nM

Asked: I'd like to know its IC50. The compound in question is CC[C@@H]1CC2C3CCC4=CC(=O)CCC4=C3[C@@H](c3ccc(-c4ccoc4)cc3)C[C@]2(C)C1C(C)=O (stereo partly drawn) [EC343]
Given back: 2.1 nM

Asked: I'd like to know its IC50. The compound in question is C[C@]12C[C@H](c3ccc(-c4ccoc4)cc3)C3=C4CCC(=O)C=C4CCC3C1CCC21OCCC1=C(F)F (stereo partly drawn) [EC-313]
Given back: 0.5 nM

Asked: I'd like to know its IC50. The compound in question is C[C@]12C[C@H](c3ccc(S(C)(=O)=O)cc3)C3=C4CCC(=O)C=C4CC[C@H]3[C@@H]1CC[C@@]2(O)C(F)(F)C(F)(F)F [BAY 1002670, reference compound]
Given back: 0.33 nM

Asked: I'd like to know its IC50. The compound in question is COC[C@]1(OC)CC[C@H]2[C@@H]3CCC4=CC(=O)CCC4=C3[C@@H](c3ccc(/C=N/O)cc3)C[C@@]21C [ASOPRISNIL, reference compound]
Given back: 0.62 nM

Asked: I'd like to know its IC50. The compound in question is CC(=O)C1[C@H](C)CC2C3CCC4=CC(=O)CCC4=C3[C@@H](c3ccc(-c4cccnc4)cc3)C[C@@]21C (stereo partly drawn) [EC348]
Given back: 0.39 nM

Asked: I'd like to know its IC50. The compound in question is COCC(=O)[C@@]1(OC(C)=O)CC[C@H]2[C@@H]3CCC4=CC(=O)CCC4=C3[C@@H](c3ccc(N(C)C)cc3)C[C@@]21C [CDB-4124, reference compound]
Given back: 0.7 nM

Asked: I'd like to know its IC50. The compound in question is C[C@]12C[C@H](c3ccc(-c4cccnc4)cc3)C3=C4CCC(=O)C=C4CCC3C1CCC21OCCC1=C(F)F (stereo partly drawn) [EC-312]
Given back: 0.63 nM

====

Target: progesterone receptor (Homo sapiens)
Test: PR transactivation assay, agonistic activity (PR luciferase reporter)
Type: cell-based
Conditions: T47D cells, stimulant R5020; read-out: EC50
Method: Transactivation Assay for Progesterone Agonist and Antagonistic Activity (See Table 1). Experimental: PR transactivation studies was carried out in human breast cancer (T47D) cells, grown in RPMI medium without phenol red and 5% charcoal stripped fetal bovine serum, transiently transfected with PR luciferase reporter (CCS-6043L signal reporter assay kit, Qiagen). The cells were stimulated R5020 as PR agonist and treated in the presence or absence of the tested compounds for 24 hours. […]
ASSAY ENDPOINT: EC50 (nM)
Quick note: give the figure in nM, leave out the unit.

Some entries whose results are on file:
MOLECULE	VALUE UNIT	EC50
C[C@]12C[C@H](c3ccc(S(C)(=O)=O)cc3)C3=C4CCC(=O)C=C4CC[C@H]3[C@@H]1CC[C@@]2(O)C(F)(F)C(F)(F)F [BAY 1002670, reference compound]	nM	9.5
C=C[C@@H]1CC2C3CCC4=CC(=O)CCC4=C3[C@@H](c3ccc(-n4ccnc4)cc3)C[C@]2(C)C1C(C)=O (stereo partly drawn) [EC347]	nM	3.4

Asked: I'd like to know its EC50. The molecule in question is C[C@]12C[C@H](c3ccc(-c4ccoc4)cc3)C3=C4CCC(=O)C=C4CCC3C1CCC21OCCC1=C(F)F (stereo partly drawn) [EC-313]
Given back: 4.75

Asked: I'd like to know its EC50. The molecule in question is CC(=O)O[C@]1(C(C)=O)CC[C@H]2[C@@H]3CCC4=CC(=O)CCC4=C3[C@@H](c3ccc(N(C)C)cc3)C[C@@]21C [CDB-2914, reference compound]
Given back: 21.5

Asked: I'd like to know its EC50. The molecule in question is C=C1CCOC12CCC1C3CCC4=CC(=O)CCC4=C3[C@@H](c3ccc(-n4ccnc4)cc3)C[C@@]12C (stereo partly drawn) [EC336]
Given back: 5

Asked: I'd like to know its EC50. The molecule in question is COC[C@]1(OC)CC[C@H]2[C@@H]3CCC4=CC(=O)CCC4=C3[C@@H](c3ccc(/C=N/O)cc3)C[C@@]21C [ASOPRISNIL, reference compound]
Given back: 4.9

====

Measured Ratio of IC50's, listed per entry.
molecular target: progesterone receptor (Homo sapiens, UniProt P06401); assay: PR transactivation assay, antagonistic activity (PR luciferase reporter); type: cell-based; conditions: PR agonism / PR antagonism
Output spec: single numeric token, no unit.

Asked: I'd like to know its Ratio of IC50's. The molecule in question is C[C@]12C[C@H](c3ccc(-c4cccnc4)cc3)C3=C4CCC(=O)C=C4CCC3C1CCC21OCCC1=C(F)F (some centres unmarked)
Given back: 81.7

Asked: I'd like to know its Ratio of IC50's. The molecule in question is CC(=O)O[C@]1(C(C)=O)CC[C@H]2[C@@H]3CCC4=CC(=O)CCC4=C3[C@@H](c3ccc(N(C)C)cc3)C[C@@]21C [CDB-2914, reference compound]
Given back: 38.4

Asked: I'd like to know its Ratio of IC50's. The molecule in question is CC(=O)C1[C@H](C)CC2C3CCC4=CC(=O)CCC4=C3[C@@H](c3ccc(-c4cccnc4)cc3)C[C@@]21C (some centres unmarked)
Given back: 11.8

Asked: I'd like to know its Ratio of IC50's. The molecule in question is CC[C@@H]1CC2C3CCC4=CC(=O)CCC4=C3[C@@H](c3ccc(-c4cccnc4)cc3)C[C@]2(C)C1C(C)=O (some centres unmarked)
Given back: 5.7

Asked: I'd like to know its Ratio of IC50's. The molecule in question is C[C@]12C[C@H](c3ccc(-c4ccoc4)cc3)C3=C4CCC(=O)C=C4CCC3C1CCC21OCCC1=C(F)F (some centres unmarked)
Given back: 9.4

Asked: I'd like to know its Ratio of IC50's. The molecule in question is C[C@]12C[C@H](c3ccc(-n4ccnc4)cc3)C3=C4CCC(=O)C=C4CCC3C1CC[C@@]2(O)C(F)(F)C(F)(F)F (some centres unmarked)
Given back: 217.3

Asked: I'd like to know its Ratio of IC50's. The molecule in question is CC[C@@H]1CC2C3CCC4=CC(=O)CCC4=C3[C@@H](c3ccc(-c4ccoc4)cc3)C[C@]2(C)C1C(C)=O (some centres unmarked)
Given back: 2.2

Asked: I'd like to know its Ratio of IC50's. The molecule in question is COCC(=O)[C@@]1(OC(C)=O)CC[C@H]2[C@@H]3CCC4=CC(=O)CCC4=C3[C@@H](c3ccc(N(C)C)cc3)C[C@@]21C [CDB-4124, reference compound]
Given back: 30.7

Asked: I'd like to know its Ratio of IC50's. The molecule in question is C[C@]12C[C@H](c3ccc(S(C)(=O)=O)cc3)C3=C4CCC(=O)C=C4CC[C@H]3[C@@H]1CC[C@@]2(O)C(F)(F)C(F)(F)F [BAY 1002670, reference compound]
Given back: 28.7

Asked: I'd like to know its Ratio of IC50's. The molecule in question is C=C[C@@H]1CC2C3CCC4=CC(=O)CCC4=C3[C@@H](c3ccc(-n4ccnc4)cc3)C[C@]2(C)C1C(C)=O (some centres unmarked)
Given back: 3.5

Asked: I'd like to know its Ratio of IC50's. The molecule in question is C=C1CCOC12CCC1C3CCC4=CC(=O)CCC4=C3[C@@H](c3ccc(-n4ccnc4)cc3)C[C@@]12C (some centres unmarked)
Given back: 1.0
